target.system: T1, IGSF11 (VSIG3)
T1 construct: coated protein in the ELISA; also called IGSF11-Fc (R&D Systems)
T1 chain: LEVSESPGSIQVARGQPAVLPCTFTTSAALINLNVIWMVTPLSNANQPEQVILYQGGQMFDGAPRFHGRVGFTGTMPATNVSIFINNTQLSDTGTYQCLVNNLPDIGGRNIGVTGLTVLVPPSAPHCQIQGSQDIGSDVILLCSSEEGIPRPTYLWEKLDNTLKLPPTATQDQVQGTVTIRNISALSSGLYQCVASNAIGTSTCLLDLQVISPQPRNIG
test: ELISA on coated IGSF11-Fc, 150 ng IgG1; None 0.090
Mark 1 for reported ELISA Absorbance (405 nm-570 nm) of 0.08 or greater; mark 0 for anything smaller.

Consider the following illustrative entries.
{"binder": "HW-17 chimeric rabbit-human IgG1 LA/LA/PG (antibody, V domains shown, Fc-silenced (L234A/L235A/P329G) IgG1, lambda; Alexa Fluor 647-labeled in single-step flow cytometry; Cluster C-1) VH: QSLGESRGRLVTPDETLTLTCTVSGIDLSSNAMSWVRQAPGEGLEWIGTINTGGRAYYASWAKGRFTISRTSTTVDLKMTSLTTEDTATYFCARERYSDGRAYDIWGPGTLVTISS VL: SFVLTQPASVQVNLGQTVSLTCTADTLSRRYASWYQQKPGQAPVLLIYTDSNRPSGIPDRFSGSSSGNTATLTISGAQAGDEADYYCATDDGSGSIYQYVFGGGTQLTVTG", "classification": 1}
{"binder": "HW-113 chimeric rabbit-human IgG1 LA/LA/PG (antibody, V domains shown, Fc-silenced (L234A/L235A/P329G) IgG1, lambda; Alexa Fluor 647-labeled in single-step flow cytometry) VH: QKQLVESGGGLVQPGGSLTLTCTVSGFSLNKYYMGWFRQAPGKGLEWIGVISRSGDTYYSSWAKGRFTISKASTTVDLRITSPTTEDTATYFCARDASSPGFHGDRLDLWGQGTLVTVSS VL: SFVLTQPASVQVNLGQTVSLTCTADTLSRSYASWYQQKPGQAPVLLIYRDTSRPSGVPDRFSGSSSGNTATLTISGAQAGDEADYYCATSDGIGSNYLWVFGGGTQLTVTG", "classification": 0}
{"binder": "HW-16 chimeric rabbit-human IgG1 LA/LA/PG (antibody, V domains shown, Fc-silenced (L234A/L235A/P329G) IgG1, kappa; Alexa Fluor 647-labeled in single-step flow cytometry; Cluster C-45) VH: QSLEESGGRLVTPGTPLTLTCTASGFSLSSYAMSWVRQAPGKGLEWIGTMPTGGGTYYASWAKGRFTISKTSTTVDLQITSPTTEDTATYFCAKHWNIWGPGTLVTISS VL: DIVLTQTPSSTSTAVGDTVTINCRASQSIGRNLAWFQQKPGQPPKLLIYRASNLASGVPSRFKGSGSRTQFTLTISGVQREDAATYYCLGSYSSSDTAFGGGTELEILR", "classification": 1}
{"binder": "HW-42 chimeric rabbit-human IgG1 LA/LA/PG (antibody, V domains shown, Fc-silenced (L234A/L235A/P329G) IgG1, lambda; Alexa Fluor 647-labeled in single-step flow cytometry; Cluster C-1) VH: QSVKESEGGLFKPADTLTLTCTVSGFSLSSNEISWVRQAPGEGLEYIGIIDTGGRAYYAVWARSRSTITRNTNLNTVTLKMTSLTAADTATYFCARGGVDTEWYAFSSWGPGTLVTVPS VL: SFVLTQPASVQVNLGQTVSLTCTADTLSRRYASWYQQKPGQAPVLLIFRDTSRPSGVPDRFSGSSSGDTATLTISGAQAGDEADYYCATSDGSGSNYQYVFGGGTQLTVTG", "classification": 1}

Pending binder:
Q) Answer whether ELISA Absorbance (405 nm-570 nm) of HW-56 chimeric rabbit-human IgG1 LA/LA/PG (antibody, V domains shown, Fc-silenced (L234A/L235A/P329G) IgG1, kappa; Alexa Fluor 647-labeled in single-step flow cytometry; Cluster C-45) VH: QSVKESEGGLFKPTDTLTLTCTASGFTVSTNAVTWVRQAPGNGLEYIGTIGRSGSAYFASWAKRRSTLTRDINLNTVTLKMTSLTAADTATYFCVRGSPGYRTAISIWGPGTLVTISS VL: AVMTQTPSSTSAAVEGTVTINCQASQSISNRLSWFQQKPGQPPKLLIYQASTLASGVPSRFKGSGSGTEFTLTISGVQREDAATYYCLGSYSSSDASFGGGTKLEIKR is greater than or equal to 0.08.
A) 0
